Target: Glucagon-like peptide 1 receptor (Homo sapiens, UniProt P43220)
Sequence (P43220 whole entry): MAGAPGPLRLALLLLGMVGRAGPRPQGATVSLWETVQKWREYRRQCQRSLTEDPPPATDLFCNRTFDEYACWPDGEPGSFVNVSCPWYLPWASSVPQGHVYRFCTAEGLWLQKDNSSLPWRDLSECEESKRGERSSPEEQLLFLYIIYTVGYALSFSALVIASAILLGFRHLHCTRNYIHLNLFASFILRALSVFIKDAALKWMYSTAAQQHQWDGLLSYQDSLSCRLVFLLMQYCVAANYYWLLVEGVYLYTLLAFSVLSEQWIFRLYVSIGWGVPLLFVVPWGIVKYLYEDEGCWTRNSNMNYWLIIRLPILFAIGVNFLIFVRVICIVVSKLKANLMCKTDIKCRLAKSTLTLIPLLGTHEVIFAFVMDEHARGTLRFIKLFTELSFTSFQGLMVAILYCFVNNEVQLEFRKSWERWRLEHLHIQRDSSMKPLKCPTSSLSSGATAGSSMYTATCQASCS
Experiment: Positive allosteric modulator activity at human GLP-1R transfected in rat INS-1 832/13 cells assessed as potentiation of GLP-1(9-36) induced cAMP accumulation
Format: functional, cell-based
experimental-endpoint: pEC50
pEC50 here: minus log base 10 of the concentration, concentration in moles per litre.

Identify measured pEC50 obtained with Glucagon-like peptide 1 receptor (Homo sapiens, UniProt P43220) for C[C@H](c1c(Cl)ccc(C2CC2)c1Cl)n1cnc2cnc(-c3ccccc3[C@@H](C)C(=O)O)cc21 . 8.15

---

Assay: Half life in Sprague-Dawley rat at 3 mg/kg, po measured upto 16 hrs by LC-MS/MS analysis
Format: ADME, organism-based
Settings: in vivo
experimental-endpoint: half-life (h)
The response must be a number in h with no trailing unit.

For the compound C[C@H](c1c(Cl)ccc(C2CC2)c1Cl)n1cnc2cnc(-c3ccccc3[C@@H](C)C(=O)O)cc21 , report half-life. 2.9

---

Test: Clearance in CD1 mouse at 1 mg/kg, iv measured upto 8 hrs by LC-MS/MS analysis
Assay type: ADME, organism-based
Details: in vivo
experimental-endpoint: clearance (mL/min/kg)
The reply should contain only the number, in mL/min/kg.

Give the reported clearance for this compound. C[C@H](c1c(Cl)ccc(C2CC2)c1Cl)n1cnc2cnc(-c3ccccc3[C@@H](C)C(=O)O)cc21 9

---

Target: Glucagon-like peptide 1 receptor (Homo sapiens)
Experiment: Positive allosteric modulator activity at human GLP-1R expressed in HEK293 cells assessed as potentiation of EC20 GLP-1(9-36) induced cAMP accumulation by measuring maximal efficacy in presence of IBMX relative to GLP-1(9-36)
Type: functional, cell-based
Conditions: filed as positive allosteric modulator
experimental-endpoint: Emax (%)
Respond numerically; units are % and should not be typed.

Worked examples, 2 molecules total:
| molecule | experimental-endpoint | observed-result |
| --- | --- | --- |
| C[C@H](c1c(Cl)ccc(C2CC2)c1Cl)n1cnc2cnc(Br)cc21 | Emax | 113 |
| COc1ccc(Cl)c([C@@H](C)n2cnc3ccc(Br)cc32)c1Cl | Emax | 102 |

Consider the molecule C[C@H](c1c(Cl)ccc(C2CC2)c1Cl)n1cnc2cnc(-c3ccccc3[C@@H](C)C(=O)O)cc21 . State its measured Emax. 98

Specify measured Emax for COc1ccc(Cl)c([C@@H](C)n2cnc3ccc(-c4ccccc4[C@H]4CCCCN4)cc32)c1Cl . 120

For the molecule CC(C(=O)O)c1ccccc1-c1cc2c(cn1)ncn2[C@H](C)c1c(Cl)ccc(C2CC2)c1Cl (stereo not given in full) , give its measured Emax value. 104

---

Test: Volume of distribution at steady state in Sprague-Dawley rat at 1 mg/kg, iv measured upto 8 hrs by LC-MS/MS analysis
Type: ADME, organism-based
Conditions: in vivo, read-out: Vdss
experimental-endpoint: Vd
Please state the number and follow it with the unit.

Could you please provide reported Vd for C[C@H](c1c(Cl)ccc(C2CC2)c1Cl)n1cnc2cnc(-c3ccccc3[C@@H](C)C(=O)O)cc21 ? Thanks! 1.6 L/kg

---

Test: AUC in Beagle dog at 1 mg/kg, iv measured upto 8 hrs by LC-MS/MS analysis
Format: ADME, organism-based, Canis lupus familiaris
Parameters: time < 8 hrs, dose 1 mg/kg, route iv
Details: in vivo
experimental-endpoint: AUC at 8 h
Quick note: unit goes after the number.

Report AUC at 8 h, nothing else, for this compound: C[C@H](c1c(Cl)ccc(C2CC2)c1Cl)n1cnc2cnc(-c3ccccc3[C@@H](C)C(=O)O)cc21 1.88 µM·h

Data origin: ChEMBL document CHEMBL5096166
